Item-by-item account of fold change of affinity
Biological target: T1, Human CD3eg linker (human)
T1 construct: Single-chain construct; also called recombinant human CD3
T1 chain: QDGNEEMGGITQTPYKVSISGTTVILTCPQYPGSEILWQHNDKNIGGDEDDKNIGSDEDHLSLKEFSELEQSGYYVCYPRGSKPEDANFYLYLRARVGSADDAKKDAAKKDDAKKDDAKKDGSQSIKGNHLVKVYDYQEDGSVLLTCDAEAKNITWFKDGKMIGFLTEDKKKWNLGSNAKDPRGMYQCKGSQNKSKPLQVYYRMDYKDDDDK
Assay: SPR; fold vs parent H183/L072
Expressed in fold, but write only the number.

Consider the following illustrative entries.
[[record]]
binder = "H183/L072 VL P95E (antibody, name in Kabat numbering, V domains shown) VH: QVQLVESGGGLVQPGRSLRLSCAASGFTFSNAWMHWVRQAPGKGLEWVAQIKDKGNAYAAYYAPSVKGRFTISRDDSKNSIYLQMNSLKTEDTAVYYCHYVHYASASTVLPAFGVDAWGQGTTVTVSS VL: DIVMTQSPLSLPVTPGEPASISCQASQELVHMNRNTYLHWYQQKPGQAPRLLIYKVSNRFPGVPDRFSGSGSGTDFTLKISRVEAEDVGVYYCAQGTSVEFTFGQGTKLEIK"
test_value = 0

[[record]]
binder = "H183/L072 VL T31Q (antibody, name in Kabat numbering, V domains shown) VH: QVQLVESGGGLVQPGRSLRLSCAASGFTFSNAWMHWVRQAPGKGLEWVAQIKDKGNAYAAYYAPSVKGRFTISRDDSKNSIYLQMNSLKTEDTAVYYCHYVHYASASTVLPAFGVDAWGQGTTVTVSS VL: DIVMTQSPLSLPVTPGEPASISCQASQELVHMNRNQYLHWYQQKPGQAPRLLIYKVSNRFPGVPDRFSGSGSGTDFTLKISRVEAEDVGVYYCAQGTSVPFTFGQGTKLEIK"
test_value = 0.4


Consider now this further binder.
Quick one: fold change of affinity for H183/L072 VL N30I (antibody, name in Kabat numbering, V domains shown) VH: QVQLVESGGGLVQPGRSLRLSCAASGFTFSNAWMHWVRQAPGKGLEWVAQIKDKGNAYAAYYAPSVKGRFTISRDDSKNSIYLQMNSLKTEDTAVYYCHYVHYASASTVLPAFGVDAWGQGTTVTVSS VL: DIVMTQSPLSLPVTPGEPASISCQASQELVHMNRITYLHWYQQKPGQAPRLLIYKVSNRFPGVPDRFSGSGSGTDFTLKISRVEAEDVGVYYCAQGTSVPFTFGQGTKLEIK ? 0.5
